target: serotonin S2 receptor (Rattus norvegicus)
Sequence (P14842 whole entry): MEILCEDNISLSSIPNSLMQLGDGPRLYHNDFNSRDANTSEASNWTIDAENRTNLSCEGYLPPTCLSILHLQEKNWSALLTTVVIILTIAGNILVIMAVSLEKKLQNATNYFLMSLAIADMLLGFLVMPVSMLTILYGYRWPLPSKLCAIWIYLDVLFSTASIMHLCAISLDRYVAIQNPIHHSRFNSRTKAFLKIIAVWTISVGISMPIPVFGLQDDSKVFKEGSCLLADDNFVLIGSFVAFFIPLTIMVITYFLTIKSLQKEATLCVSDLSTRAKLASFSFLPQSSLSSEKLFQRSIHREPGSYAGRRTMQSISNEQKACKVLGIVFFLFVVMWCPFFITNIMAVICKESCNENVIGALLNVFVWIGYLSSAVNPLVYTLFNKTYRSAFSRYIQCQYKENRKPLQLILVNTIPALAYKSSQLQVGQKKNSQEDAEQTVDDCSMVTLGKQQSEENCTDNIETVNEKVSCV
pKi: −log10 of the molar value.
Returns the class for an entry based on its pKi. Class ranges: low group (below 7), middle group (7 to below 8), high group (8 or more)

Sample answers from the record:
>  <COMPOUND>
CCN1CCN(c2cc(CC(C)O)c(OC)c(-c3ccccc3)c2)CC1 (stereo not drawn)

>  <ASSIGNED CLASS>
low group

$$$$
>  <COMPOUND>
CCC(F)c1cc(N2CCN(C)CC2)cc(-c2ccccc2)c1Cl (stereo not drawn)

>  <ASSIGNED CLASS>
high group

$$$$
>  <COMPOUND>
CCNS(=O)(=O)c1cc(N2CCN(CC)CC2)cc(-c2ccccc2)c1OC

>  <ASSIGNED CLASS>
middle group

$$$$
>  <COMPOUND>
CCN1CCN(c2cc(C(=O)Cc3ccc(F)cc3)c(OC)c(-c3ccccc3)c2)CC1

>  <ASSIGNED CLASS>
high group

$$$$
>  <COMPOUND>
CCCS(=O)(=O)Nc1cc(N2CCN(C)CC2)cc(-c2ccccc2C)c1Cl

>  <ASSIGNED CLASS>
high group

$$$$
>  <COMPOUND>
CCN1CCN(c2cc(-c3ccccc3)c(OC)c(S(N)(=O)=O)c2)CC1

>  <ASSIGNED CLASS>
low group

$$$$
>  <COMPOUND>
CCCc1cc(N2CCN(CC)CC2)cc(-c2cccc(F)c2)c1OC

>  <ASSIGNED CLASS>
low group

$$$$
>  <COMPOUND>
CCN1CCN(c2cc(C#N)c(OC)c(-c3ccccc3)c2)CC1

>  <ASSIGNED CLASS>
low group

$$$$

Prompt line: Exercise: read the entry CCC(F)c1cc(-c2ccccc2)cc(N2CCN(CC)CC2)c1 (stereo not drawn) and state which class it falls under.
Response line: middle group

Prompt line: Now consider "CCCc1cc(N2CCN(CC)CC2)cc(-c2ccccc2C)c1OC" .
Response line: middle group
